Task for the reader: assign each of the following compounds its reported % release of Compound (I) from the respective Salts.
assay_details: In-vitro intrinsic dissolution of 200 mg pellets of API without excipients
Format: physicochemical
condition_label: 45 min; Table 8; 200 mg pellet, 0.01N HCl, 37° C., paddle 75 rpm
Procedure: A tableting mixture (200 mg) comprising solely salts of (((1-(6-amino-9H-purin-9-yl)propan-2-yloxy)methyl) (phenoxy) phosphoryloxy) methyl pivalate-prepared according to any one of the examples 1 to 10 (i.e. with no excipients) was prepared and compressed to a pellet using an automatic KBR press operating at a compression pressure of 2 tones for 2 minutes. […] Note: Aliquots were analysed on HPLC. […]
Provide the reading as a plain figure in %.

Input line: % release of Compound (I) from the respective Salts lookup needed for CC(Cn1cnc2c(N)ncnc21)OCP(=O)(OCOC(=O)C(C)(C)C)Oc1ccccc1.O=C(O)CCC(=O)O (stereo not drawn) [Succinate] , thanks.
Output line: 23

Input line: Try this compound too: CC(Cn1cnc2c(N)ncnc21)OCP(=O)(OCOC(=O)C(C)(C)C)Oc1ccccc1.O=C(O)C(O)C(O)C(=O)O (stereo not drawn) [Tartrate]
Output line: 17

Input line: Try this compound too: CC(Cn1cnc2c(N)ncnc21)OCP(=O)(OCOC(=O)C(C)(C)C)Oc1ccccc1.O=C(O)CC(O)(CC(=O)O)C(=O)O (stereo not drawn) [Citrate]
Output line: 33

Input line: Try this compound too: CC(Cn1cnc2c(N)ncnc21)OCP(=O)(OCOC(=O)C(C)(C)C)Oc1ccccc1.O=C(O)/C=C/C(=O)O (stereo not drawn) [Fumarate]
Output line: 18

Input line: Try this compound too: CC(Cn1cnc2c(N)ncnc21)OCP(=O)(OCOC(=O)C(C)(C)C)Oc1ccccc1.O=C(O)C(=O)O (stereo not drawn) [Oxalate]
Output line: 10

Input line: Try this compound too: CC(Cn1cnc2c(N)ncnc21)OCP(=O)(OCOC(=O)C(C)(C)C)Oc1ccccc1.O=P(O)(O)O (stereo not drawn) [Phosphate]
Output line: 104

// data source = patent US11390637B2
